# reported Kd; entries follow
- MEASUREMENT TARGET: T1, EsCas13d, nuclease-dead (Eubacterium siraeum, UniProt B0MS50, R295A;H300A;R849A;H854A)
- T1 sequence: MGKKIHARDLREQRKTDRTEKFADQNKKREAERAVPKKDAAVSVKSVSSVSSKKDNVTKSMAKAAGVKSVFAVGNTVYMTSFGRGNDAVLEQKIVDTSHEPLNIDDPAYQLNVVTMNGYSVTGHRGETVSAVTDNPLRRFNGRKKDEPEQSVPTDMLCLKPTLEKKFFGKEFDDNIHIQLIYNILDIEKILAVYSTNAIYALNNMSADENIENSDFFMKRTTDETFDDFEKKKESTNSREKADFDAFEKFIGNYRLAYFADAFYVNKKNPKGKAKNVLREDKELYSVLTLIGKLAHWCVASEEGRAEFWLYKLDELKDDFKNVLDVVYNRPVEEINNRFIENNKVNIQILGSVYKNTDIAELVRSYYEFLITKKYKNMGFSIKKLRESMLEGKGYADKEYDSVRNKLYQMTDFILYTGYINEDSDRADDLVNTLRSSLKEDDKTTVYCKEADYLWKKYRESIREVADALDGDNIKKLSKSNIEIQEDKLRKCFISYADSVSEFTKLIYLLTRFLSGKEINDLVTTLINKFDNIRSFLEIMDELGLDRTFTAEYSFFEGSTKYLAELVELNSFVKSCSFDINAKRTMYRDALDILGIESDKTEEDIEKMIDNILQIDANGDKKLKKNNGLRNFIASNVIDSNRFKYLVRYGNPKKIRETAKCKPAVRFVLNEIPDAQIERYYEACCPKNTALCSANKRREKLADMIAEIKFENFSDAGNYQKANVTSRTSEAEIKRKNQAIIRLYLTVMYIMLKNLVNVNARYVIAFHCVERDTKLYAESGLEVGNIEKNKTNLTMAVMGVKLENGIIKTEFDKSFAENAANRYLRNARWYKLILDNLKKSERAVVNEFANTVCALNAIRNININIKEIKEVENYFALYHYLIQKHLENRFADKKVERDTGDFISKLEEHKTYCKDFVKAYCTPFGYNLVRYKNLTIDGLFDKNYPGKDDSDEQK
- EXPERIMENT DESCRIPTION: crRNA (strand 1, pre-loaded); Mg2+; 40 mM Tris-HCl pH 7.5, 150 mM NaCl, 6 mM MgCl2, 1 mM DTT, 0.1% Tween-20, 0.2 mg/ml BSA; 25 C; 10 min per concentration, then washed
- APPLIED CONDITIONS: tags: His6-TwinStrep-SUMO cleaved; N-terminal SNAP kept (SNAP-Surface 488); label: 3' end held by stalled T7 RNA polymerase

BINDER	READOUT UNIT	Kd
target 1 U10C,C22A (mixed) RNA 1: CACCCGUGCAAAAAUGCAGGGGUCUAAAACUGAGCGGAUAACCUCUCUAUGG RNA 2: GGGAAUGGAUCCACAUCUACGAAUUCGUAACAUAGAGAGGUCAUCCGCUCACCGAGAUCGGAAGAGCACACGU	nM	35.5
target 1 C2U,A16U (mixed) RNA 1: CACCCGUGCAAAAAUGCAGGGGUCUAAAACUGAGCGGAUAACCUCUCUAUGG RNA 2: GGGAAUGGAUCCACAUCUACGAAUUCGUACCAUAGUGAGGUUAUCCGCUUACCGAGAUCGGAAGAGCACACGU	nM	56
target 2 MT 5'PFS GGG 3'PFS AGU (mixed) RNA 1: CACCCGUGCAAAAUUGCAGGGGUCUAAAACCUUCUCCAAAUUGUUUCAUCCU RNA 2: GGGAAUGGAUCCACAUCUACGAAUUCGGGAGGAUGAAACAAUUUGGAGAAGAGUAGAUCGGAAGAGCACACGU	nM	6.2
